study_system: T1, CaBdf1 BD2 (GST-tagged, wild-type) (Candida albicans (strain SC5314 / ATCC …, UniProt Q5A4W8))
T1 chain: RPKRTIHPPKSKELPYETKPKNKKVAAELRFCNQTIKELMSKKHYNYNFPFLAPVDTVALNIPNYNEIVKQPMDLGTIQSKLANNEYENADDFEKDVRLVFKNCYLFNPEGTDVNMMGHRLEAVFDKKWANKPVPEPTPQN
measurement_notes: histone peptide array (Active Motif MODified), 1 uM GST-tagged bromodomain, anti-GST detection, normalized mean intensity
Square brackets hold non-standard residues; d marks the D form. Ends that are not written are not given here. pS = N[C@@H](COP(=O)(O)O)C(=O)O
I'd appreciate it if you marked entries 1.0 when binding score is lower than 0.01 and 0.0 when it is not.

>  <binder>
ARTKQTARKSTGGKAPRKQ (A Rme2a T Kme1 Q T A R Kme2 S T G G K A P R K Q)

>  <group>
1.0

$$$$
>  <binder>
ARTKQTARKSTGGKAPRKQ (not fully specified)

>  <group>
1.0

$$$$
>  <binder>
PDPAK(Ac)SAPAPKKG[pS]K(Ac)KAVT

>  <group>
0.0

$$$$
>  <binder>
PRKQLATKAARK(Me)[pS]APATGG [H3 16-35]

>  <group>
1.0

$$$$
>  <binder>
PDPAK(Ac)SAPAPKKGSK(Ac)KAVT

>  <group>
1.0

$$$$
>  <binder>
ARTKQTARKSTGGKAPRKQ (A R T K Q T A R Kac pS T G G K A P R K Q)

>  <group>
1.0

$$$$

Asked: Is the reported binding score for SGRGKGGKGLGKGGAKRHR (pS G Rme2a G Kac G G Kac G L G K G G A K R H R) [H4 1-19] strictly below 0.01?
Given back: 0.0
